test: in vitro; conditions: human, hela cells, % viability
// returns rule not met unless viability at 28.5 h, 10 µM is strictly below 90%, in which case rule met

molecule=O=C1NCC2(C/C=C/CCOc3ccccc31)CCNCC2 label="rule not met"
molecule=Nc1nonc1C(=O)NCCNCc1ccc(Cl)cc1 label="rule not met"
molecule=COc1ccc(CNC(N)=O)cc1 label="rule not met"
molecule="CCN1CCN(C(=O)C2CC(C)=C(C)CC2C(=O)O)CC1 (centres unmarked)" label="rule met"
molecule="Cc1cc(C)c2nonc2c1S(=O)(=O)NCCN1CCCCC1CO (centres unmarked)" label="rule not met"
molecule="Cc1ccc2c(c1)OC(C)(C)CC2NS(=O)(=O)N1CCN(C)CC1 (centres unmarked)" label="rule not met"
molecule=CC(C)c1nccc(CN2CCC(CCN3CCCC3=O)CC2)n1 label="rule not met"
molecule=CC(=O)Nc1ccc(OCCO)cc1 label="rule met"
molecule=Cc1cc(Cl)c(S(=O)(=O)Nc2ccc(Oc3ccccc3)cc2)cc1OCC(N)=O label="rule not met"
molecule=O=C(Cn1c(-c2ccc(F)cc2)cc2cccnc21)N1CCOCC1 label="rule not met"
molecule=CS(=O)(=O)c1ccc(Cn2ccnc(N3CCC(Sc4ccccc4)CC3)c2=O)cc1 label="rule met"
molecule=CS(=O)(=O)c1sc(C(=O)O)c2c1C=CCC2 label="rule met"
molecule=COc1ccc(/C(C)=N\NC(=O)c2cccc(Br)c2)cc1 label="rule not met"
molecule=N#CCCCN1CCC(Oc2nccnc2OCc2ccc(F)cc2)CC1 label="rule not met"

* * *

Attribute: viability at 28.5 h, 10 µM
assay: in vitro; conditions: human, hela cells, % viability
Measured Endpoint: viability at 28.5 h, 10 µM (%)

compound=O=S(=O)(Nc1nc2cc(Cl)ccc2o1)c1ccc(Oc2ccccc2)cc1 experimental_result=97.8
compound="COc1cc(Cl)cc(/C=N\\NC(=O)C2C(=O)NCC2c2ccccc2)c1O (centres unmarked)" experimental_result=91.8
compound=COc1ccc(CCNC(=S)N2CCN(S(C)(=O)=O)CC2)cc1OC experimental_result=115
compound="COc1ccc(OC(C)C(=O)Nc2ccc(S(N)(=O)=O)cc2)cc1 (centres unmarked)" experimental_result=96
compound=COC(=O)c1cc(NS(=O)(=O)c2cc(Cl)ccc2Cl)cc(C(=O)OC)c1 experimental_result=105

* * *

test: in vitro; design: Viability of infected HeLa host cells, resazurin conversion, bulk resorufin fluorescence relative to DMSO; conditions: human, hela cells; bulk resorufin, mean of 2
Measured Endpoint: viability at 28.5 h, 5 µM

molecule=CCOc1ccsc1C(=O)NC1Cc2ccccc2C1 experimental_result=96.4%
molecule=Cc1cc(C)nc(NS(=O)(=O)c2ccc(NC(=O)N3c4ccccc4Sc4ccccc43)cc2)n1 experimental_result=90.2%
molecule=O=C(Nc1ccc2[nH]ccc2c1)c1ccccc1Nc1cccc(C(F)(F)F)c1 experimental_result=114%
molecule="Cc1cc(Br)ccc1S(=O)(=O)N(C)c1ccc(N2CCNCC2)c2ccccc12 [CBK016170C]" experimental_result=92.1%
molecule=COc1ccc2[nH]cc(CCNC(=O)c3ccc(Cl)c(Cl)c3)c2c1 experimental_result=88.8%

* * *

test: in vitro; details: human, hela cells, % viability
Measured Endpoint: viability at 28.5 h, 10 µM (%)

molecule="O=C(NC1CC1)[C@H]1O[C@H](CCN2CCN(c3ccccc3)CC2)CC[C@@H]1O [CBK288717]" measured_endpoint="viability at 28.5 h, 10 µM" experimental_result=96.8
molecule="Cc1ccc(C2=CCN(CC(=O)N3CCc4ccccc43)CC2)o1 [CBK283918]" measured_endpoint="viability at 28.5 h, 10 µM" experimental_result=88.1
molecule="CN(C)c1cccc2c(S(=O)(=O)n3c(=O)n(CCc4c[nH]c5ccccc45)c4ccccc43)cccc12 [CBK106511]" measured_endpoint="viability at 28.5 h, 10 µM" experimental_result=85.8
molecule="OCCN1CCN(Cc2cc(Br)cs2)CC1 [CBK261758]" measured_endpoint="viability at 28.5 h, 10 µM" experimental_result=96
molecule="CCOc1ccsc1C(=O)Nc1c(OC)cc(F)cc1OC1CCNCC1 [CBK050292T]" measured_endpoint="viability at 28.5 h, 10 µM" experimental_result=94.3
molecule="Cc1cccc(OC(=O)C2C(c3ccccc3)C(C(=O)O)C2c2ccccc2)c1 (stereo not drawn) [CBK263843]" measured_endpoint="viability at 28.5 h, 10 µM" experimental_result=94
molecule="COC(=O)N/N=C(/C)c1ccc(C)cc1 [CBK016149]" measured_endpoint="viability at 28.5 h, 10 µM" experimental_result=109
molecule="Clc1ccc(-c2c[nH]c([C@@H]3COCCN3Cc3csnn3)n2)cc1 [CBK289309]" measured_endpoint="viability at 28.5 h, 10 µM" experimental_result=87.1
molecule="CCc1nn(CC(=O)NCC2CC2)c(=O)c2cc3sc(C)cc3n12 [CBK284100]" measured_endpoint="viability at 28.5 h, 10 µM" experimental_result=85.7
